# target-under-test: COX-2 (Homo sapiens)
# Construct: purchased BioVision Inc. (Mountain View, CA, USA)
# Sequence (P35354 18-604): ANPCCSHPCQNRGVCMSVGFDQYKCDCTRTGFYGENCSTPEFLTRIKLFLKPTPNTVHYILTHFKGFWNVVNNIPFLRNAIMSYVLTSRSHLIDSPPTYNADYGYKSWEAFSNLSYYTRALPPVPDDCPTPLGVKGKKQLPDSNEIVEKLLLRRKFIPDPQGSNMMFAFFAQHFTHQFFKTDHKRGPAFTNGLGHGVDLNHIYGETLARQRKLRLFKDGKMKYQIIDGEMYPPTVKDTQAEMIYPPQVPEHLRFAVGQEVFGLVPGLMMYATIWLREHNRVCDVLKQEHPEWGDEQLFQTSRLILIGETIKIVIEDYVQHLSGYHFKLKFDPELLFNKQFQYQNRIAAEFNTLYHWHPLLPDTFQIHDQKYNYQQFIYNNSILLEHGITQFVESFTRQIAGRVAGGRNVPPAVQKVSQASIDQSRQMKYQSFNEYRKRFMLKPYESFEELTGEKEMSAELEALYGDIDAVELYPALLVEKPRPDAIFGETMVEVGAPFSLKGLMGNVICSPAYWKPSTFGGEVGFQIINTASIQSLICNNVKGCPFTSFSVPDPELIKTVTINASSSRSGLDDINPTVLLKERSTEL
# test-summary: fluorometric COX-2 inhibition assay (Cayman Chemical kit)
# Format: biochemical
# assay-conditions: read-out: COX-2 Inhibition (%)
The following molecules are listed with their measured inhibition at 50 µM values.
Report only the number, with the unit % understood.

Look over these answered cases.
>>> result("CCCCCc1cc(O)c(C/C=C(\\C)CCC=C(C)C)c(O)c1 [CBG, cannabigerol]")
87.4
>>> result("C=C(C)[C@@H]1CCC(C)=C[C@H]1c1c(O)cc(CCCCC)cc1O [CBD, cannabidiol, reference compound]")
71.9
>>> result("C=C[C@@](C)(/C=C/c1ccc(O)cc1)CCC=C(C)C [BAK, bakuchiol]")
81.9

--- query ---
Prompt: # get_value(readout='inhibition at 50 µM', item= Cn1c(=O)c2c(ncn2C)n(C)c1=O [Caffeine, caffeine, reference compound] )
Response: 63.5
